Biological target: PIK3CD (Human) (UniProt O00329)
Sequence (O00329 whole entry, looked up): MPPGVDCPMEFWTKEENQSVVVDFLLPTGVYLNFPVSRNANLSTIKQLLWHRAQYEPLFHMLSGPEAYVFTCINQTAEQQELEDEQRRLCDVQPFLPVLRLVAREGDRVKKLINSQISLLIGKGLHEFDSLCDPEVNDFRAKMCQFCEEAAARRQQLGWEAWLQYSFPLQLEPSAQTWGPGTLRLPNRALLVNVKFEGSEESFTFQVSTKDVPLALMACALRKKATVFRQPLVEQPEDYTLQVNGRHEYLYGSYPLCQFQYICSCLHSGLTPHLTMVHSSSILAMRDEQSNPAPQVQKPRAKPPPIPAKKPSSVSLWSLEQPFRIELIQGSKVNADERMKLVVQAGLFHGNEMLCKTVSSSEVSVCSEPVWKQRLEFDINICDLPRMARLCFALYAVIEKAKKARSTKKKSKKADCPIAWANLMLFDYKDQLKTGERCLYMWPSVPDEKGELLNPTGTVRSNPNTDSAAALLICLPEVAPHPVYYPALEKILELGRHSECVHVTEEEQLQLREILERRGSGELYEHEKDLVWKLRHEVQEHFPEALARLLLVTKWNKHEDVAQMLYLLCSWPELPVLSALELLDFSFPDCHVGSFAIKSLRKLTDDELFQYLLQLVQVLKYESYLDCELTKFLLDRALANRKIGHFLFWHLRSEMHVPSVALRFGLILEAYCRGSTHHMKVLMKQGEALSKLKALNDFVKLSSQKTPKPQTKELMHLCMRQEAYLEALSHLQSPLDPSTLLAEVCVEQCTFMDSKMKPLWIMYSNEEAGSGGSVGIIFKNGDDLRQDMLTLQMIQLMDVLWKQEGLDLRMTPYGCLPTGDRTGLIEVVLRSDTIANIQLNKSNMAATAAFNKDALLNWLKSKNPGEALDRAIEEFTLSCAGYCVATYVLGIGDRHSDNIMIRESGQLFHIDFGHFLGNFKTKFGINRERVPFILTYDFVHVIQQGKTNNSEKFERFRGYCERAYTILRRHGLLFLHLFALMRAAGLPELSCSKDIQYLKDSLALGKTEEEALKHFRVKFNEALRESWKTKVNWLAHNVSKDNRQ
Assay: Enzyme Assay
reportedProperty: IC50

- C[C@H](NC(=O)c1c(N)nn2cccnc12)c1cc2cccc(C#CCNC(=O)[C@@H]3CCC(=O)O3)c2c(=O)n1-c1ccccc1: 100 to 1000 nM
- COc1cncc(-c2cccc3cc([C@H](C)NC(=O)c4c(N)nn5cccnc45)n(-c4ccccc4)c(=O)c23)c1: 100 to 1000 nM
- Cc1cnc(C(=O)N[C@@H](C)c2cc3cccc(C(F)(F)F)c3c(=O)n2-c2ccccc2)c(N)n1: ≥ 10000 nM
- CC(C)Nc1cccc2cc([C@H](C)NC(=O)c3c(N)nn4cccnc34)n(-c3ccccc3)c(=O)c12: ≥ 10000 nM

Data provenance is the Kinase Knowledgebase extract (Sharma et al. 2016).
